system: SK-MEL-5 melanoma; experiment: NCI tumour cell line growth inhibition, 48 h
Where a SMILES comes first, the peptide text is derived from it. Bridges are numbered along the chain shown (N, C = ends). [ ]: non-standard residue; d: D form. The star is where a group is joined. ξ: configuration not given here. Phe(4-NO2) = N[CH](Cc1ccc([N+](=O)[O-])cc1)C(=O)O; ξDab(CH2SO3H) = NC(CCNCS(=O)(=O)O)C(=O)O; Heptanoyl(6-Me) = CC(C)CCCCC(=O)*; Dab = NCC[CH](N)C(=O)O
QUANTITY NAME: TGI

Response field TGI (SK-MEL-5 melanoma) for item Cc1ccc(C(c2c(O)c3ccccc3n(-c3ccccc3)c2=O)c2c(O)c3ccccc3n(-c3ccccc3)c2=O)cc1 : > 100 µM

Response field TGI (SK-MEL-5 melanoma) for item C=C1C(=O)O[C@H]2[C@H]1CC/C(C=Nc1c(N)cc(C(F)(F)F)cc1C(F)(F)F)=C\CC[C@@]1(C)O[C@@H]21 : 2.67 µM

Response field TGI (SK-MEL-5 melanoma) for item COc1ccc(-c2cc(-c3ccc(O)cc3O)c(C#N)c(=O)[nH]2)cc1 : 34.6 µM

Response field TGI (SK-MEL-5 melanoma) for item CCC(C)C1NC(=O)C(CCNCS(=O)(=O)O)NC(=O)C(NC(=O)C(CCNCS(=O)(=O)O)NC(=O)C(NC(=O)C(CCNCS(=O)(=O)O)NC(=O)CCCCC(C)C)C(C)O)CCNC(=O)C(C(C)O)NC(=O)C(CCNCS(=O)(=O)O)NC(=O)C(CCNCS(=O)(=O)O)NC(=O)C(C(C)CC)NC1=O (centres undefined) ({Heptanoyl(6-Me)}-[ξDab(CH2SO3H)]T[ξDab(CH2SO3H)][Dab][ξDab(CH2SO3H)]II[ξDab(CH2SO3H)][ξDab(CH2SO3H)]T; lactam 4-C; configuration not given here) : 11.4 µM

Response field TGI (SK-MEL-5 melanoma) for item CC/C(=C(/c1ccc(O)cc1)c1ccc(OCCN)cc1)c1ccccc1 : 4.3 µM

Response field TGI (SK-MEL-5 melanoma) for item C/C(CC(=O)Nc1cc(C)ccc1C)=N/N=C(N)N : > 100 µM

Response field TGI (SK-MEL-5 melanoma) for item CCCCCCn1c(-c2ccc(C(=O)O/N=C(\N)c3ccc4ccccc4c3)cc2)nc(-c2ccccc2)c1-c1ccccc1 : > 100 µM

Response field TGI (SK-MEL-5 melanoma) for item C#C/C=C\CCCCCCCCCCCCCC/C=C\CCCCC#CC(O)C#CCCCC/C=C\CCCCCC/C=C/C(O)C#C (centres undefined) : 17.6 µM

Response field TGI (SK-MEL-5 melanoma) for item COC(=O)c1ccccc1N1C(=O)Cc2ccccc2C1=O : > 100 µM

Response field TGI (SK-MEL-5 melanoma) for item COc1ccc2c(c1)CC[C@@H]1[C@@H]2CC[C@]2(C)c3c(cc(C(=O)O)c4sccc34)C[C@@H]12 : 28.4 µM

Response field TGI (SK-MEL-5 melanoma) for item O=C(O)C(C(=O)O)P(=S)(S)c1ccccc1 (centres undefined) : > 31.6 µM

Response field TGI (SK-MEL-5 melanoma) for item O[C@H]1[C@H](O)[C@@H](O)[C@@]2(O)CC[C@@H]1N2 : > 100 µM

Response field TGI (SK-MEL-5 melanoma) for item N=N/C(=C\c1c(O)[nH]c2ccccc12)c1ccccc1 : > 100 µM

Response field TGI (SK-MEL-5 melanoma) for item O=C(NC(=O)c1ccccc1[N+](=O)[O-])Nc1ccc(Oc2ncc(Cl)cn2)c([N+](=O)[O-])c1 : > 14.1 µM

Response field TGI (SK-MEL-5 melanoma) for item COc1ccc2nc3c([N+](=O)[O-])ccc(NCCCN(C)C)c3c(NCCCN(C)C)c2c1 : 3.46 µM

Response field TGI (SK-MEL-5 melanoma) for item COC(=O)C1=CO[C@@H](OC2OC(CO)C(O)C(O)C2O)[C@H]2[C@@H](C)[C@@H](O)[C@@H](O)[C@@H]12 (some centres undefined) : > 100 µM

Response field TGI (SK-MEL-5 melanoma) for item O=C(OCc1ccc([N+](=O)[O-])cc1)N1c2ccccc2[C@@]23O[C@]24CCC[C@H]3C#C/C=C\C#C[C@H]14 : > 100 µM

Response field TGI (SK-MEL-5 melanoma) for item C#CCN(Cc1nc2cc(C(F)(F)F)ccc2nc1-c1ccccc1)c1ccc(C)cc1 : > 32.4 µM

Response field TGI (SK-MEL-5 melanoma) for item Cc1ccc(N=NC(=Nc2ccc(Cl)cc2)c2ccc(N(CCC#N)CCC#N)cc2)cc1 : > 100 µM

Response field TGI (SK-MEL-5 melanoma) for item CC(=O)Nc1c(I)c(NC(C)=O)c(I)c(C(=O)O)c1I : > 100 µM

Response field TGI (SK-MEL-5 melanoma) for item CC(C)(C)OC(=O)NC(Cc1ccc(O)cn1)C(=O)O (centres undefined) : > 100 µM

Response field TGI (SK-MEL-5 melanoma) for item O=C(c1nc2ccccc2[nH]c1=O)C(O)c1ccco1 (centres undefined) : > 100 µM

Response field TGI (SK-MEL-5 melanoma) for item O=[N+]([O-])c1ccc(C2CC(c3ccccc3)=Nc3ccccc3S2)cc1 (centres undefined) : > 100 µM

Response field TGI (SK-MEL-5 melanoma) for item COc1ccc(Cn2cc3c(c2-c2ccccc2)CCc2cnoc2-3)cc1OC : 10.4 µM

Response field TGI (SK-MEL-5 melanoma) for item CC1=NNC(=O)C1C1CC(c2c[nH]c3ccccc23)=NN(C(N)=O)C1=O (centres undefined) : > 100 µM

Response field TGI (SK-MEL-5 melanoma) for item CN(C)CCCCC(C(=O)CBr)(c1ccccc1)c1ccccc1 : 8.68 µM

Response field TGI (SK-MEL-5 melanoma) for item COc1cc(O)c2c(c1)O[C@@H]1OCC[C@H]21 : > 100 µM

Response field TGI (SK-MEL-5 melanoma) for item COc1cc2cc(C(=O)Nc3cc4n(n3)-c3ccccc3C4)[nH]c2c(OC)c1OC : 5.23 µM

Response field TGI (SK-MEL-5 melanoma) for item CC(NC(=O)C(Cc1ccc([N+](=O)[O-])cc1)NC(=O)C(N)CCCCN)C(=O)NC(Cc1ccc([N+](=O)[O-])cc1)C(N)=O (centres undefined) (H-K[Phe(4-NO2)]A[Phe(4-NO2)]-NH2; configuration not given here) : 51.5 µM

Response field TGI (SK-MEL-5 melanoma) for item Clc1ccc(CCn2cncn2)cc1 : > 100 µM

Response field TGI (SK-MEL-5 melanoma) for item O=C(CCCN1CCC(Nc2ccccc2)(c2nnnn2C2CCCCC2)CC1)c1ccc(F)cc1 : 3 µM

Response field TGI (SK-MEL-5 melanoma) for item O=C([O][Hg][CH2]C1OCCOC1[CH2][Hg][O]C(=O)c1ccccc1)c1ccccc1 (centres undefined) : 22.8 µM

Response field TGI (SK-MEL-5 melanoma) for item C[C@]12CC[C@H]3[C@@H](CC=C4C[C@@H](O)CC[C@@]43C)[C@@H]1C/C(=C/c1ccccc1)[C@@H]2O : > 100 µM

Response field TGI (SK-MEL-5 melanoma) for item COC(=O)[C@H](Cc1c[nH]c2ccccc12)NP(=O)(O)OC[C@H]1O[C@@H](n2cc(C)c(=O)[nH]c2=O)C[C@@H]1N=[N+]=[N-] : > 100 µM
